tested on: breast cancer cell line MCF-7; experiment: MCF-7 cell growth study (celltiter-glo luminescent viability assay); assay type: cell-based, human; conditions: Homo sapiens, MCF7, 144 h, MCF-7 cells, 6 days incubation; read-out: IC50 (nM), cell growth inhibition
valueKind: IC50 (nM)

>  <molecule>
CC1Cc2c([nH]c3cc(Cl)ccc23)C(c2c(F)cc(/C=C/C(=O)O)cc2F)N1CC(C)(C)F (stereo not drawn) [Compound 43B]

>  <target>
breast cancer cell line MCF-7

>  <observed>
0.8

$$$$
>  <molecule>
C[C@@H]1Cc2c([nH]c3ccccc23)[C@@H](c2c(Cl)cc(OCCN3CC(CF)C3)cc2Cl)N1CC(C)(C)F [Compound 9]

>  <target>
breast cancer cell line MCF-7

>  <observed>
3.1

$$$$
>  <molecule>
CC1Cc2c([nH]c3cc(O)ccc23)C(c2c(F)cc(/C=C/C(=O)O)cc2F)N1CC(C)(C)F (stereo not drawn) [Compound 36]

>  <target>
breast cancer cell line MCF-7

>  <observed>
16

$$$$
>  <molecule>
C[C@@H]1Cc2c([nH]c3ccccc23)[C@@H](c2c(F)cc(OCCN3CCCCCC3)cc2F)N1CC(C)(F)F [Compound 4]

>  <target>
breast cancer cell line MCF-7

>  <observed>
0.9

$$$$
>  <molecule>
C[C@@H]1Cc2c([nH]c3ccccc23)[C@@H](c2c(F)cc(OCCN3CC(CF)C3)cc2Cl)N1CC(C)(C)F [Compound 11]

>  <target>
breast cancer cell line MCF-7

>  <observed>
0.4

$$$$
>  <molecule>
COc1ccc2[nH]c3c(c2c1)CC(C)N(CC(C)(C)F)C3c1c(F)cc(/C=C/C(=O)O)cc1F (stereo not drawn) [Compound 37A]

>  <target>
breast cancer cell line MCF-7

>  <observed>
2.9

$$$$
>  <molecule>
C[C@@H]1Cc2c([nH]c3ccccc23)[C@@H](c2c(F)cc(/C=C/C(=O)O)cc2F)N1CC(C)(F)F [Compound 29]

>  <target>
breast cancer cell line MCF-7

>  <observed>
0.9

$$$$
>  <molecule>
CC1Cc2c(oc3ccccc23)C(c2c(Cl)cc(/C=C/C(=O)O)cc2Cl)N1CC(C)(C)F (stereo not drawn) [Compound 45]

>  <target>
breast cancer cell line MCF-7

>  <observed>
8.9

$$$$
>  <molecule>
CC1Cc2c(oc3ccccc23)C(c2c(F)cc(/C=C/C(=O)O)cc2F)N1CC(C)(F)F (stereo not drawn) [Compound 44A]

>  <target>
breast cancer cell line MCF-7

>  <observed>
7.9

$$$$

###

system: breast cancer cell line MCF-7; assay: MCF-7 cell growth study (celltiter-glo luminescent viability assay); assay type: cell-based, human; conditions: Homo sapiens, MCF7, 144 h, MCF-7 cells, 6 days incubation; read-out: IC50 (nM), cell growth inhibition;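 note: viability read by luminescence after compound exposure, relative to DMSO vehicle-treated wells on the same plate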

>  <compound>
CC1Cc2c([nH]c3ccc(F)cc23)C(c2c(Cl)cc(OCCN3CC(CF)C3)cc2Cl)N1CC(C)(C)F (stereo not shown) [Compound 14B]

>  <IC50>
2.6 nM

$$$$
>  <compound>
C[C@@H]1Cc2c([nH]c3ccccc23)[C@@H](c2c(Cl)cc(OCCN3CC(CF)C3)cc2Cl)N1CC(C)(F)F

>  <IC50>
3.2 nM

$$$$
>  <compound>
C[C@@H]1Cc2c([nH]c3ccccc23)[C@@H](c2c(F)cc(/C=C/C(=O)O)cc2Cl)N1CC(C)(F)F

>  <IC50>
0.5 nM

$$$$
>  <compound>
CC1Cc2c([nH]c3ncccc23)C(c2c(F)cc(OCCN3CC(CF)C3)cc2F)N1CC(C)(F)F (stereo not shown) [Compound 19A]

>  <IC50>
3.1 nM

$$$$

###

target: UniProtKB P03372; assay: MCF-7 ER degradation assay (high content imaging); format: cell-based; conditions: MCF-7 cells, 1 nM compound, 24 hours treatment, DMSO control as baseline
Sequence (P03372 whole entry): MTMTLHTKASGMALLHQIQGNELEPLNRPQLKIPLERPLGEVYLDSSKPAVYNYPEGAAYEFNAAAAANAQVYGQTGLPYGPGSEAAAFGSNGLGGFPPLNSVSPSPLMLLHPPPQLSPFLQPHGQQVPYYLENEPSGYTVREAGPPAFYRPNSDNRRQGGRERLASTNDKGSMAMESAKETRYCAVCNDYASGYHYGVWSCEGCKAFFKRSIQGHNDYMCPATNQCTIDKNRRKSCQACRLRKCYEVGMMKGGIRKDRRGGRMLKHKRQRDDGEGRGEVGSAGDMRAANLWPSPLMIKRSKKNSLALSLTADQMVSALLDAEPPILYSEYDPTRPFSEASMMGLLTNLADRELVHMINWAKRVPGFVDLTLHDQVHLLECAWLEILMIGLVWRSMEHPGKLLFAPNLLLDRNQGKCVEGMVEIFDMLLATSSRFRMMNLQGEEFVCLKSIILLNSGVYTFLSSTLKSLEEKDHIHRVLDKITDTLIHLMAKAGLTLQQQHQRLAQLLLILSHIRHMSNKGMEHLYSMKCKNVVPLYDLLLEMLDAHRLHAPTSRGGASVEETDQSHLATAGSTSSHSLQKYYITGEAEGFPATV
Listing: MCF7 ER Degradation at 24 hr (%) of selected molecules

>  <molecule>
CC1Cc2c([nH]c3cc(F)ccc23)C(c2c(F)cc(/C=C/C(=O)O)cc2F)N1CC(C)(C)F (centres unmarked) [Compound 34A]

>  <MCF7 ER Degradation at 24 hr (%)>
20

$$$$
>  <molecule>
C[C@@H]1Cc2c([nH]c3ccccc23)[C@@H](c2c(F)cc(/C=C/C(=O)O)cc2Cl)N1CC(C)(C)F [Compound 20]

>  <MCF7 ER Degradation at 24 hr (%)>
21

$$$$
>  <molecule>
C[C@]12CC[C@@H]3c4ccc(O)cc4C[C@@H](CCCCCCCCC[S+]([O-])CCCC(F)(F)C(F)(F)F)[C@H]3[C@@H]1CC[C@@H]2O (some centres unmarked) [Fulvestrant, reference compound]

>  <MCF7 ER Degradation at 24 hr (%)>
15

$$$$
>  <molecule>
C[C@@H]1Cc2c([nH]c3ccccc23)[C@@H](c2c(F)cc(/C=C/C(=O)O)cc2F)N1CC(C)(C)F [AZD9496, reference compound]

>  <MCF7 ER Degradation at 24 hr (%)>
23

$$$$
>  <molecule>
CC1Cc2c([nH]c3ccc(F)cc23)C(c2c(F)cc(/C=C/C(=O)O)cc2F)N1CC(C)(C)F (centres unmarked) [Compound 46A]

>  <MCF7 ER Degradation at 24 hr (%)>
20

$$$$

###

test: Mouse PK study (iv 3 mpk, po 30 mpk); assay type: in vivo, male CD1 mice; conditions: male, CD1, whole blood, 30 mg/kg, PO 30 mpk, read-out: Mouse PO 30 mpk AUC last
Recorded measurements of AUC(0-t), one per entry

>  <compound>
C[C@@H]1Cc2c([nH]c3ccccc23)[C@@H](c2c(F)cc(/C=C/C(=O)O)cc2F)N1CC(C)(C)F [AZD9496, reference compound]

>  <unitsSymbol>
µM·h

>  <AUC(0-t)>
85

$$$$
>  <compound>
CC/C(=C(/c1ccc(/C=C/C(=O)O)cc1)c1ccc2[nH]ncc2c1)c1ccc(F)cc1Cl [GDC-0810, reference compound]

>  <unitsSymbol>
µM·h

>  <AUC(0-t)>
80

$$$$
>  <compound>
C[C@@H]1Cc2c([nH]c3ccccc23)[C@@H](c2c(Cl)cc(/C=C/C(=O)O)cc2Cl)N1CC(C)(F)F [Compound 25]

>  <unitsSymbol>
µM·h

>  <AUC(0-t)>
658

$$$$

###

Test: Human hepatocyte clearance study
Assay type: in vitro ADME
Conditions: human, pooled cryopreserved human hepatocytes (suspension); read-out: Human In vitro Clint (μL/min/10^6 cells)
Protocol: The in vitro hepatocyte clearance of compound described here was studied using pooled human hepatocytes purchased from BioreclamationlVT (Westbury, NY, Cat #X008001, Lot #TQJ). Assay was conducted according to manufacture's instruction. […] Hepatocyte viability and density were counted using a Trypan Blue exclusion, and then cells were diluted with serum-free incubation medium to a working cell density of 0.5×10^6 viable cells/mL. […] Peak areas were determined from extracted ion chromatograms. […]
Attribute: hepatocyte CLint at 1 µM

>  <compound>
C[C@@H]1Cc2c([nH]c3ccccc23)[C@@H](c2c(F)cc(/C=C/C(=O)O)cc2F)N1CC(C)(C)F [AZD9496, reference compound]

>  <hepatocyte CLint at 1 µM [µL/min/1e6 cells]>
9

$$$$
>  <compound>
C[C@@H]1Cc2c([nH]c3ccccc23)[C@@H](c2c(F)cc(OCCN3CC(CF)C3)cc2Cl)N1CC(C)(C)F [Compound 11]

>  <hepatocyte CLint at 1 µM [µL/min/1e6 cells]>
2

$$$$
>  <compound>
CC/C(=C(/c1ccc(/C=C/C(=O)O)cc1)c1ccc2[nH]ncc2c1)c1ccc(F)cc1Cl [GDC-0810, reference compound]

>  <hepatocyte CLint at 1 µM [µL/min/1e6 cells]>
24.6

$$$$
>  <compound>
C[C@@H]1Cc2c([nH]c3ccccc23)[C@@H](c2c(F)cc(/C=C/C(=O)O)cc2F)N1CC(C)(F)F [Compound 29]

>  <hepatocyte CLint at 1 µM [µL/min/1e6 cells]>
2.4

$$$$
>  <compound>
C[C@]12CC[C@@H]3c4ccc(O)cc4C[C@@H](CCCCCCCCC[S+]([O-])CCCC(F)(F)C(F)(F)F)[C@H]3[C@@H]1CC[C@@H]2O (some centres unmarked) [Fulvestrant, reference compound]

>  <hepatocyte CLint at 1 µM [µL/min/1e6 cells]>
33

$$$$

###

Assay: Human hepatocyte clearance study
Assay type: in vitro ADME
Settings: pooled cryopreserved human hepatocytes (suspension); human hepatocytes, scaling factor 2544.3; read-out: Human Scale-up Clint
Protocol: The in vitro hepatocyte clearance of compound described here was studied using pooled human hepatocytes purchased from BioreclamationlVT (Westbury, NY, Cat #X008001, Lot #TQJ). Assay was conducted according to manufacture's instruction. […] Hepatocyte viability and density were counted using a Trypan Blue exclusion, and then cells were diluted with serum-free incubation medium to a working cell density of 0.5×10^6 viable cells/mL. […] Peak areas were determined from extracted ion chromatograms. […]
valueKind: CLint scaled at 1 µM (mL/min/kg)

>  <compound>
C[C@@H]1Cc2c([nH]c3ccccc23)[C@@H](c2c(F)cc(/C=C/C(=O)O)cc2F)N1CC(C)(F)F

>  <observed>
6.2

$$$$
>  <compound>
C[C@]12CC[C@@H]3c4ccc(O)cc4C[C@@H](CCCCCCCCC[S+]([O-])CCCC(F)(F)C(F)(F)F)[C@H]3[C@@H]1CC[C@@H]2O (some centres unmarked) [Fulvestrant, reference compound]

>  <observed>
86

$$$$
>  <compound>
C[C@@H]1Cc2c([nH]c3ccccc23)[C@@H](c2c(F)cc(OCCN3CC(CF)C3)cc2Cl)N1CC(C)(C)F

>  <observed>
5.3

$$$$
>  <compound>
C[C@@H]1Cc2c([nH]c3ccccc23)[C@@H](c2c(F)cc(/C=C/C(=O)O)cc2F)N1CC(C)(C)F [AZD9496, reference compound]

>  <observed>
23

$$$$
>  <compound>
CC/C(=C(/c1ccc(/C=C/C(=O)O)cc1)c1ccc2[nH]ncc2c1)c1ccc(F)cc1Cl [GDC-0810, reference compound]

>  <observed>
63

$$$$
